Where do these numbers come from? They come from patent US11590129B2.

# Test system: U87-MG human glioblastoma cell line
# procedureSummary: cells
# measurementParameters: Homo sapiens, U-87 MG, 72 h
Here the recorded log10 of IC50 is given for each entry.
Recall that a logarithmic scale is used here: each number is log10 of IC50 in µM.

compound	measuredQuantity	measuredNumber
CO[C@H]1C[C@@H]2CC[C@@H](C)[C@@](O)(O2)C(=O)C(=O)N2CCCC[C@H]2C(=O)O[C@H]([C@H](C)C[C@@H]2CC[C@@H](OC(=O)C(C)(CO)CO)[C@H](OC)C2)CC(=O)[C@H](C)/C=C(\C)[C@@H](O)[C@@H](OC)C(=O)[C@H](C)C[C@H](C)/C=C/C=C/C=C/1C [Temsirolimus, temsirolimus]	log10 of IC50	0.54
C#Cc1cccc(Nc2ncnc3cc(OCCOC)c(OCCOC)cc23)c1 [Erlotinib, erlotinib]	log10 of IC50	2.17
CN(Cc1cnc2nc(N)nc(N)c2n1)c1ccc(C(=O)N[C@@H](CCC(=O)O)C(=O)O)cc1 [Methotrexate, methotrexate]	log10 of IC50	1.70
CN(C)/N=N/c1[nH]cnc1C(N)=O [Dacarbazine, dacarbazine]	log10 of IC50	2.85

With those in mind, consider the next compound.
Enquiry: Quick one: log10 of IC50 of COc1ccc2[nH]c3c(c2c1)CCN[C@]31CS[C@@H]2c3c(OC(C)=O)c(C)c4c(c3[C@H](COC1=O)N1[C@@H]2[C@H]2c3c(cc(C)c(OC)c3O)C[C@@H]([C@@H]1O)N2C)OCO4 [PM01183] ?
Return: -2.35

====

# Test system: HT-29 human colon adenocarcinoma cell line
# procedureSummary: cells
# measurementParameters: Homo sapiens, HT-29, 72 h
measuredQuantity: IC50
Write the quantity with the unit trailing the number.

Worked examples follow.
molecule	IC50
CN(C)/N=N/c1[nH]cnc1C(N)=O	24.7 µM
Nc1ccn([C@@H]2O[C@H](CO)[C@@H](O)[C@@H]2O)c(=O)n1	7.8 µM
COc1cccc2c1C(=O)c1c(O)c3c(c(O)c1C2=O)C[C@@](O)(C(C)=O)C[C@@H]3O[C@H]1C[C@H](N)[C@H](O)[C@H](C)O1	0.532 µM
O=c1[nH]cc(F)c(=O)[nH]1	9 µM

Enquiry: What value of IC50 on HT-29 human colon adenocarcinoma cell line does Nc1ccn([C@@H]2O[C@H](CO)[C@@H](O)C2(F)F)c(=O)n1 have?
Return: 0.4 µM

Enquiry: // next record CO[C@H]1C[C@@H]2CC[C@@H](C)[C@@](O)(O2)C(=O)C(=O)N2CCCC[C@H]2C(=O)O[C@H]([C@H](C)C[C@@H]2CC[C@@H](OC(=O)C(C)(CO)CO)[C@H](OC)C2)CC(=O)[C@H](C)/C=C(\C)[C@@H](O)[C@@H](OC)C(=O)[C@H](C)C[C@H](C)/C=C/C=C/C=C/1C
Return: 3.5 µM

Enquiry: // next record C#Cc1cccc(Nc2ncnc3cc(OCCOC)c(OCCOC)cc23)c1
Return: 25.6 µM

Enquiry: // next record COc1cccc2c1C(=O)c1c(O)c3c(c(O)c1C2=O)C[C@@](O)(C(=O)CO)C[C@@H]3O[C@H]1C[C@H](N)[C@H](O)[C@H](C)O1
Return: 0.9 µM

Enquiry: // next record O=P1(N(CCCl)CCCl)NCCCO1 (centres unmarked) [Cyclophosphamide, cyclophosphamide]
Return: 1000 µM

Enquiry: // next record CC(C)C[C@H](NC(=O)[C@H](Cc1ccccc1)NC(=O)c1cnccn1)B(O)O
Return: 0.00615 µM

Enquiry: // next record CC(=O)O[C@@]12CO[C@@H]1C[C@H](O)[C@@]1(C)C(=O)[C@H](O)C3=C(C)[C@@H](OC(=O)[C@H](O)[C@@H](NC(=O)OC(C)(C)C)c4ccccc4)C[C@@](O)([C@@H](OC(=O)c4ccccc4)[C@H]21)C3(C)C
Return: 0.00032 µM
